- SYSTEM UNDER TEST: C-X-C chemokine receptor type 2 (Homo sapiens, UniProt P25025)
- Sequence (P25025 whole entry): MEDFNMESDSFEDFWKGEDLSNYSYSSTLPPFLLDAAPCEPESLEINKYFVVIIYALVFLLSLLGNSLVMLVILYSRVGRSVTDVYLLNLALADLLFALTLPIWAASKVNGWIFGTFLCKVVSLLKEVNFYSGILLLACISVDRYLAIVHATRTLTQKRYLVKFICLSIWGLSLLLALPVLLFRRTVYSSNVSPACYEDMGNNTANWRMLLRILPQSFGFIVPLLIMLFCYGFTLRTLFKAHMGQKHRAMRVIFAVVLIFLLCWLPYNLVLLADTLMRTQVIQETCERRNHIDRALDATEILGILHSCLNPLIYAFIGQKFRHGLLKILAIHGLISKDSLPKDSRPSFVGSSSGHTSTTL
# label = met if Ki < 200 nM else not met

Input CN(CCC#N)C(=O)c1cccc(Nc2nsnc2N[C@@H](c2ccco2)C(C)(C)C)c1O ; condition: Ki strictly below 200 nM. Does it hold?
met

For this compound, is Ki lower than 200 nM? CN(C)C(=O)c1cccc(Nc2nsnc2N[C@@H](c2cccc(F)c2)C(C)(C)C)c1O
not met

Hi there! Is Ki for Cc1ccc([C@H](Nc2nsnc2Nc2cccc(C(=O)N(C)C)c2O)C(C)C)o1 below 200 nM, do you know?
not met

Strictly below 200 nM: is that where Ki of CN(C)C(=O)c1cccc(Nc2nsnc2N[C@@H](c2ccc3c(c2)OCCO3)C(C)(C)C)c1O sits?
not met

Lab log: compare recorded Ki with 200 nM; is it strictly lower for Cc1ccc([C@H](Nc2nsnc2Nc2ccc(C(F)(F)F)c(C(=O)N(C)C)c2O)C(C)(C)C)o1 ?
met

Dear colleague, could you confirm whether Ki of CC(C)c1coc([C@H](Nc2nsnc2Nc2cccc(C(=O)N(C)CCC#N)c2O)C(C)(C)C)c1 falls below 200 nM? Thanks.
met

Determine whether this compound shows Ki lower than 200 nM (ties excluded): Cc1ccc([C@H](Nc2nsnc2Nc2cccc(C(=O)N3CCOCC3)c2O)C(C)(C)C)o1
not met

====

Endpoint: Ki. System: C-X-C chemokine receptor type 1 (Homo sapiens, UniProt P25024). Items follow.
Sequence (P25024 whole entry): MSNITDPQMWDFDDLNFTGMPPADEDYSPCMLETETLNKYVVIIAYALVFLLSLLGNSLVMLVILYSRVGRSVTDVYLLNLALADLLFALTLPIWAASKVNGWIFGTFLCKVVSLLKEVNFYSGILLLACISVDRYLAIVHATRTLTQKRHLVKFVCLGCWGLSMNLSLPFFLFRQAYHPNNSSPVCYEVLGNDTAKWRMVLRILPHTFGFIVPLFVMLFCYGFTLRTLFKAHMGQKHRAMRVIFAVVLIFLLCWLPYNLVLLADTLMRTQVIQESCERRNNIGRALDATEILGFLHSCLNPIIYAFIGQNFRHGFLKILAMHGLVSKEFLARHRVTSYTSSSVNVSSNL
Report the value in nM with no unit label.

Using the record for Cc1ccc([C@H](Nc2nsnc2Nc2ccc(C(F)(F)F)c(C(=O)N(C)C)c2O)C(C)(C)C)o1 , state its measured Ki.
38

Return the recorded Ki value; entry: Cc1ccc([C@H](Nc2nsnc2Nc2cccc(C(=O)N(C)CCC#N)c2O)C(C)(C)C)o1
13

Supply Ki value. Item: CN(C)C(=O)c1cccc(Nc2nsnc2N[C@@H](c2cccc(F)c2)C(C)(C)C)c1O
78

====

MEASURED METRIC: IC50 (nM)
API: value field is a number in nM; no unit string.

State measured IC50 of the compound Cc1ccc([C@H](Nc2nsnc2Nc2cccc(C(=O)N(C)C)c2O)C(C)(C)C)o1 with C-X-C chemokine receptor type 2 (Homo sapiens).
21
